Reported MFI/isotype control normalized to full-length human CD137 values for a set of binders
# target.system: T1, human/mouse CD137 chimera 1554
# T1 construct: on transfected FreeStyle 293-F cells
# assay.method.text: flow cytometry, 293-F cells with CD137 chimera
Enter a number only.

| binder | result.value |
| --- | --- |
| 1200/1201 (antibody, V domains shown) VH: EVQLLESGGGLVQPGGSLRLSCAASGFTFSSYAMSWVRQAPGKGLEWVSGISGGGGGTYYADSVKGRFTISRDNSKNTLYLQMNSLRAEDTAVYYCARDVAYFDYWGQGTLVTVSS VL: DIQMTQSPSSLSASVGDRVTITCRASQSISSYLNWYQQKPGKAPKLLIYAASSLQSGVPSRFSGSGSGTDFTLTISSLQPEDFATYYCQQYYIPHTFGQGTKLEIK | 0.84 |
| 1202/1203 (antibody, V domains shown) VH: EVQLLESGGGLVQPGGSLRLSCAASGFTFYGSSMSWVRQAPGKGLEWVSSIYYGSSGTYYADSVKGRFTISRDNSKNTLYLQMNSLRAEDTAVYYCARSYYGYFDYWGQGTLVTVSS VL: DIQMTQSPSSLSASVGDRVTITCRASQSISSYLNWYQQKPGKAPKLLIYAASSLQSGVPSRFSGSGSGTDFTLTISSLQPEDFATYYCQQYYTVVPFTFGQGTKLEIK | 0.51 |
| 1620/1621 (antibody, V domains shown) VH: EVQLLESGGGLVQPGGSLRLSCAASGFTFSGYYMYWVRQAPGKGLEWVSGISSSGSYTYYADSVKGRFTISRDNSKNTLYLQMNSLRAEDTAVYYCARSVGPYFDYWGQGTLVTVSS VL: DIQMTQSPSSLSASVGDRVTITCRASQSISSYLNWYQQKPGKAPKLLIYAASSLQSGVPSRFSGSGSGTDFTLTISSLQPEDFATYYCQQGVGPYTFGQGTKLEIK | 0.17 |

Prompt line: Entry under review: 1204/1205 (antibody, V domains shown) VH: EVQLLESGGGLVQPGGSLRLSCAASGFTFSSYYMGWVRQAPGKGLEWVSGIGSYYGYTGYADSVKGRFTISRDNSKNTLYLQMNSLRAEDTAVYYCARAYYDYNYYYAYFDYWGQGTLVTVSS VL: DIQMTQSPSSLSASVGDRVTITCRASQSISSYLNWYQQKPGKAPKLLIYAASSLQSGVPSRFSGSGSGTDFTLTISSLQPEDFATYYCQQSVPHYPFTFGQGTKLEIK . Reported MFI/isotype control normalized to full-length human CD137?
Response line: 0.73
